Protocol: Induction of apoptosis in C57BL/6 mouse dendritic cells assessed as viable cells at 50 uM after 72 hrs using annexin V-propidium iodide and annexin V staining by flow cytometry
Assay type: cell-based
Protocol conditions: read-out: Activity
Readout name: viability at 72 h, 50 µM (%)
Give bare numbers, in %.

CCCCCCCCCCCCCCCCOP(=O)([O-])OCC[N+](C)(C)C yielded viability at 72 h, 50 µM of 17.7

###

Protocol: Induction of apoptosis in C57BL/6 mouse dendritic cells assessed as […] viable cells at 25 uM after 18 hrs using annexin V-propidium iodide and annexin V staining by flow cytometry
Format: cell-based
Protocol conditions: read-out: Activity
Readout name: viability at 18 h, 25 µM (%)
Numbers only, in %.

CCCCCCCCCCCCCCCCOP(=O)([O-])OCC[N+](C)(C)C [MILTEFOSINE] yielded viability at 18 h, 25 µM of 58.4

###

Protocol: Induction of apoptosis in C57BL/6 mouse dendritic cells assessed as viable cells at 5 uM after 72 hrs using annexin V-propidium iodide and annexin V staining by flow cytometry
Type: cell-based
Protocol conditions: read-out: Activity
Readout name: viability at 72 h, 5 µM (%)
Numbers only, in %.

CCCCCCCCCCCCCCCCOP(=O)([O-])OCC[N+](C)(C)C yielded viability at 72 h, 5 µM of 36

###

Protocol: Induction of apoptosis in C57BL/6 mouse dendritic cells assessed as viable cells at 5 uM after 18 hrs using annexin V-propidium iodide and annexin V staining by flow cytometry
Assay type: cell-based
Protocol conditions: read-out: Activity
Readout name: viability at 18 h, 5 µM (%)
Answers are plain numbers, in %.

CCCCCCCCCCCCCCCCOP(=O)([O-])OCC[N+](C)(C)C [MILTEFOSINE] yielded viability at 18 h, 5 µM of 84
